# TESTED SYSTEM: Cathepsin B (Homo sapiens)
# EXPERIMENTAL PROTOCOL: Inhibition of human recombinant Cathepsin B assessed as Kinact using Z-FR-AMC as substrate inubated for 30 mins by fluorometric assay
Assign Kinact to each entry below.

INSERT INTO assay_data (molecule, readout_label, experimental_value) VALUES
  ('CC[C@H](C)[C@@H](C(=O)O[C@@H](CC(C)C)C(=O)N[C@@H](CC(C)C)C(=O)N[C@@H](C)/C=C/C(=O)N1C(=O)C=C(OC)[C@@H]1C)N(C)C [GALLINAMIDE A]', 'Kinact', '6.27 10^-4/s');

# batch: return Kinact for each of the 3 molecules below
1. COC1=CC(=O)N(C(=O)/C=C/[C@H](CCc2ccccc2)NC(=O)[C@H](CC(C)C)NC(=O)[C@H](CC(C)C)NC(=O)[C@H](C(C)C)N(C)C)[C@H]1Cc1c[nH]c2ccccc12
2. COC1=CC(=O)N(C(=O)/C=C/[C@H](C)NC(=O)[C@H](CC(C)C)NC(=O)[C@H](CC2CCCCC2)NC(=O)C2CCN(C)CC2)[C@H]1Cc1c[nH]c2ccccc12
3. COC1=CC(=O)N(C(=O)/C=C/[C@H](C)NC(=O)[C@H](CC(C)C)NC(=O)[C@H](CC(C)C)NC(=O)C2CCN(C)CC2)[C@H]1Cc1c[nH]c2ccccc12

## Result
1. 1.89 10^-3/s
2. 2.09 10^-2/s
3. 1.7 10^-2/s

## Task Tell us which Kinact value is on record for COC1=CC(=O)N(C(=O)/C=C/[C@H](C)NC(=O)[C@H](CCc2ccccc2)NC(=O)[C@H](CC2CCCCC2)NC(=O)[C@H](C(C)C)N(C)C)[C@H]1Cc1c[nH]c2ccccc12
## Result 3.35 10^-3/s
